Settings: in 2-methoxyethanol, 278.15 K
Test readout: solubility (mole fraction)
Output spec: single numeric token, no unit.

Fill blank: measured solubility (mole fraction) of the compound `O=c1cc(CO)occ1O` is ____. 0.0181

###

Settings: in acetic acid, 293.15 K
Test readout: solubility (mole fraction)
Output spec: single numeric token, no unit.

Fill blank: measured solubility (mole fraction) of the compound `O=c1cc(CO)occ1O` is ____. 0.0139

###

Details: in ethyl acetate, 293.15 K
Test readout: solubility (mole fraction)
Output spec: single numeric token, no unit.

Fill blank: measured solubility (mole fraction) of the molecule `O=c1cc(CO)occ1O` is ____. 0.00169

###

Conditions: in DMF, 308.15 K
Test readout: solubility (mole fraction)
Output spec: single numeric token, no unit.

Fill blank: measured solubility (mole fraction) of the compound `O=c1cc(CO)occ1O` is ____. 0.157

###

Details: in NMP, 288.15 K
Test readout: solubility (mole fraction)

Fill blank: measured solubility (mole fraction) of the compound `O=c1cc(CO)occ1O` is ____. 0.185

###

Details: in water, 323.15 K
Test readout: solubility (mole fraction)

Fill blank: measured solubility (mole fraction) of the compound `O=c1cc(CO)occ1O` is ____. 0.0185

###

Conditions: in n-propanol, 303.15 K
Test readout: solubility (mole fraction)
Output spec: single numeric token, no unit.

Fill blank: measured solubility (mole fraction) of the molecule `O=c1cc(CO)occ1O` is ____. 0.00646

###

Conditions: in DMAc, 303.15 K
Test readout: solubility (mole fraction)
Output spec: single numeric token, no unit.

Fill blank: measured solubility (mole fraction) of the compound `O=c1cc(CO)occ1O` is ____. 0.194

###

Conditions: in n-propanol, 278.15 K
Test readout: solubility (mole fraction)
Output spec: single numeric token, no unit.

Fill blank: measured solubility (mole fraction) of the molecule `O=c1cc(CO)occ1O` is ____. 0.00225

###

Conditions: in water, 313.15 K
Test readout: solubility (mole fraction)

Fill blank: measured solubility (mole fraction) of the compound `O=c1cc(CO)occ1O` is ____. 0.0113

###

Conditions: in DMSO, 313.15 K
Test readout: solubility (mole fraction)
Output spec: single numeric token, no unit.

Fill blank: measured solubility (mole fraction) of the compound `O=c1cc(CO)occ1O` is ____. 0.28

###

Conditions: in 1,4-dioxane, 303.15 K
Test readout: solubility (mole fraction)
Output spec: single numeric token, no unit.

Fill blank: measured solubility (mole fraction) of the molecule `O=c1cc(CO)occ1O` is ____. 0.0121

###

Conditions: in DMSO, 318.15 K
Test readout: solubility (mole fraction)
Output spec: single numeric token, no unit.

Fill blank: measured solubility (mole fraction) of the compound `O=c1cc(CO)occ1O` is ____. 0.292

###

Settings: in water, 278.15 K
Test readout: solubility (mole fraction)
Output spec: single numeric token, no unit.

Fill blank: measured solubility (mole fraction) of the molecule `O=c1cc(CO)occ1O` is ____. 0.00216

###

Conditions: in ethyl acetate, 323.15 K
Test readout: solubility (mole fraction)

Fill blank: measured solubility (mole fraction) of the molecule `O=c1cc(CO)occ1O` is ____. 0.00497

###

Details: in n-propanol, 308.15 K
Test readout: solubility (mole fraction)
Output spec: single numeric token, no unit.

Fill blank: measured solubility (mole fraction) of the compound `O=c1cc(CO)occ1O` is ____. 0.00782

###

Conditions: in 2-ethoxyethanol, 303.15 K
Test readout: solubility (mole fraction)
Output spec: single numeric token, no unit.

Fill blank: measured solubility (mole fraction) of the compound `O=c1cc(CO)occ1O` is ____. 0.0261

###

Conditions: in ethanol, 318.15 K
Test readout: solubility (mole fraction)
Output spec: single numeric token, no unit.

Fill blank: measured solubility (mole fraction) of the compound `O=c1cc(CO)occ1O` is ____. 0.0158

###

Details: in DMF, 278.15 K
Test readout: solubility (mole fraction)
Output spec: single numeric token, no unit.

Fill blank: measured solubility (mole fraction) of the compound `O=c1cc(CO)occ1O` is ____. 0.0977

###

Conditions: in n-propanol, 293.15 K
Test readout: solubility (mole fraction)
Output spec: single numeric token, no unit.

Fill blank: measured solubility (mole fraction) of the compound `O=c1cc(CO)occ1O` is ____. 0.00423

###

Settings: in methanol, 308.15 K
Test readout: solubility (mole fraction)

Fill blank: measured solubility (mole fraction) of the compound `O=c1cc(CO)occ1O` is ____. 0.0156

###

Details: in acetic acid, 318.15 K
Test readout: solubility (mole fraction)
Output spec: single numeric token, no unit.

Fill blank: measured solubility (mole fraction) of the compound `O=c1cc(CO)occ1O` is ____. 0.0353

###

Details: in methanol, 298.15 K
Test readout: solubility (mole fraction)
Output spec: single numeric token, no unit.

Fill blank: measured solubility (mole fraction) of the molecule `O=c1cc(CO)occ1O` is ____. 0.011

###

Conditions: in DMF, 313.15 K
Test readout: solubility (mole fraction)

Fill blank: measured solubility (mole fraction) of the molecule `O=c1cc(CO)occ1O` is ____. 0.168

###

Details: in DMF, 283.15 K
Test readout: solubility (mole fraction)
Output spec: single numeric token, no unit.

Fill blank: measured solubility (mole fraction) of the compound `O=c1cc(CO)occ1O` is ____. 0.106

###

Conditions: in DMF, 298.15 K
Test readout: solubility (mole fraction)
Output spec: single numeric token, no unit.

Fill blank: measured solubility (mole fraction) of the molecule `O=c1cc(CO)occ1O` is ____. 0.135

These measurements were taken from BigSolDB 2.1.
